Test system: OVCAR-5 ovarian
testDescription: NCI tumour cell line growth inhibition, 48 h
Classification field: enter Satisfied for TGI values not below 40 µM, Not satisfied for values below it.

Answered cases to consult:
CCn1cc(C2NC(=O)c3ccccc3N2)c2cccc(C)c21 (stereo not given) = Satisfied
Nc1ncnc2c1ncn2C1OC(CSC(F)F)C(O)C1O (stereo not given) = Satisfied
CCOc1cc2ncc(C#N)c(Nc3ccc(F)c(Cl)c3)c2cc1NC(=O)CC1CCSS1 (stereo not given) = Not satisfied

Determine whether measured TGI meets or exceeds 40 µM for `O=C1/C(=C/c2ccc(Cl)cc2Cl)CN(S(=O)(=O)c2ccccc2)C/C1=C\c1ccc(Cl)cc1Cl`
Not satisfied

Determine whether measured TGI meets or exceeds 40 µM for O=C1/C(=C\c2cccc(Oc3ccccc3)c2)S(=O)(=O)C(c2ccccc2)N1c1cc(Cl)ccc1Cl (stereo not given)
Satisfied

Determine whether measured TGI meets or exceeds 40 µM for `Oc1ccc(-c2nc3ccc(F)cc3s2)cc1`
Satisfied

Determine whether measured TGI meets or exceeds 40 µM for COC(=O)C1=C(C(=O)OC)C2(C)OC1C(=O)C21CC1 (stereo not given)
Satisfied

Determine whether measured TGI meets or exceeds 40 µM for `O=C(Cn1nnc(-c2ccccc2)n1)N/N=C/c1cn(Cc2ccc(Cl)cc2Cl)c2ccccc12`
Satisfied

Determine whether measured TGI meets or exceeds 40 µM for `O=c1cc(NNc2ccc(F)cc2)[nH]c(=O)[nH]1`
Not satisfied

Determine whether measured TGI meets or exceeds 40 µM for `COc1cc(/C=N/NC(=O)c2c(Cl)c(Cl)c(Cl)c(Cl)c2-c2nc3ccccc3[nH]2)ccc1O`
Satisfied

Determine whether measured TGI meets or exceeds 40 µM for c1ccc2[nH]c(C3CCCCO3)nc2c1 (stereo not given)
Satisfied

Determine whether measured TGI meets or exceeds 40 µM for COc1ccc(C2Oc3ccc(O)cc3[C@@H]2C)cc1OC (stereo not given in full)
Satisfied

Determine whether measured TGI meets or exceeds 40 µM for `CCOC(=O)C(=CNC(=S)c1ccncc1)C(=O)OCC`
Satisfied

----------
Kindly supply the reported log10(TGI) values for the records listed here.
Tested on: MCF7 breast
testDescription: NCI tumour cell line growth inhibition, 48 h
The common logarithm of TGI in µM is what is listed.

CCOC(=O)/C=C(\C)Sc1cc(O)c2ccccc2c1O = 1.82

Hey, can you go through the list below and give me log10(TGI) for every item?
1. CN(C)C(=S)NC(=S)Nc1ccc2ccccc2c1
2. COc1ccc(-c2nc(S(=O)(=O)c3ccccc3)c(S(=O)CC(=O)N3CCC(C)CC3)o2)cc1 (stereo unspecified)
3. CC(=O)O[C@@H]1C(C2CCCCC2)C=[N+]([O-])O[C@@H]1OC1CCCC1(c1ccccc1)c1ccccc1 (stereo partly specified)
4. C=C1C(=O)O[C@H]2[C@H]1CC/C(COC(=O)NCc1ccc(Cn3c(=O)sn(CCCC)c3=O)cc1)=C\CC[C@@]1(C)O[C@@H]21
5. CN1CCN(CCCOc2ccc3ncnc(Nc4ccc(OCc5cccc(F)c5)c(Cl)c4)c3c2)CC1

[1.57, 0.54, 1.08, 0.59, 0.47]

----------
System: SNB-78 CNS
testDescription: NCI tumour cell line growth inhibition, 48 h
Kindly supply the reported TGI values for the records listed here.

These recorded examples may help you get a feel for the data.
COc1cc2c[n+](C)c3c4cc(OC)c(OC)cc4c(OCCCCCCCCOc4cc5c6cc(OC)c(OC)cc6c[n+](C)c5c5cc(OC)c(OC)cc45)cc3c2cc1OC = > 100 µM
C=C[C@]1(C)CC(O)C2C(=C)C(=O)OC2[C@H]1C(=C)C=O (stereo partly drawn) = 13.4 µM
COc1ccc(-c2ccccc2)c(N/N=C2\CCCNC2=O)c1 = > 100 µM
C[C@]12CC[C@H](OC3CCCCO3)CC1=CC[C@@H]1C2CC[C@]2(C)/C(=N/OCCC#N)CCC12 (stereo partly drawn) = 72.1 µM
C/C(=N/NC(=O)c1ccccc1O)c1ccc(/C(C)=N\NC(=O)c2ccccc2O)c2nc3cc(C)c(C)cc3nc12 = > 100 µM

Hey, can you go through the list below and give me TGI for every item?
1. CC(C)c1ccccc1NC(=O)CCC(=O)NN
2. CCN(C(C)=N)c1ccccc1
3. CCOC(=O)COc1ccc(OC)c2c1C(=O)CCC2
4. COCOCCCCCO[Si](C)(C)C(C)(C)C
5. CC(C)Cn1cnc2c(Sc3c([N+](=O)[O-])ncn3C)nc(N)nc21
6. COc1ccc(/C=C/C(=O)c2cc(C(=O)O)c(OC)cc2OC)cc1OC

> 100 µM
> 100 µM
> 100 µM
48.3 µM
> 100 µM
> 100 µM

----------
System: UO-31 renal
testDescription: NCI tumour cell line growth inhibition, 48 h
measurementLabel: TGI (µM)
One number for each entry, in µM.

These recorded examples may help you get a feel for the data.
C=C1C(=O)O[C@@H]2C[C@@H]3[C@]4(CC[C@]5(C)[C@@H]([C@H](C)CC/C=C(\C)C=O)CC[C@@]35C)C[C@]4(CCC(=O)OC)[C@H]12 = 3.53
COCOCCCCCO[Si](C)(C)C(C)(C)C = 42.8
COc1ccc(-c2cc(-c3ccccc3)nc(N)c2-c2ccc3ccccc3c2)cc1 = 5.13

// next item, TGI requested
Output reported TGI of the compound `c1ccc(CNc2ccc3[nH]c4cnccc4c3c2)cc1` on UO-31 renal.
29.4

----------
Test system: SF-539 CNS
testDescription: NCI tumour cell line growth inhibition, 48 h
Kindly supply the reported TGI values for the records listed here.
Numbers only, in µM.

These recorded examples may help you get a feel for the data.
COc1ccc(-c2nc(S(=O)(=O)c3ccccc3)c(S(=O)CC(=O)N3CCC(C)CC3)o2)cc1 (stereo not given) = 3.52
C=C1C(=O)O[C@@H]2C[C@@H]3[C@]4(CC[C@]5(C)[C@@H]([C@H](C)CC/C=C(\C)C=O)CC[C@@]35C)C[C@]4(CCC(=O)OC)[C@H]12 = 4.22

Hey, can you go through the list below and give me TGI for every item?
1. Cc1ccc2c(c1)C(=O)C(c1c(-c3[nH]c(=O)c4ccc(C)cc4c3O)c(O)c3ccccc3c1O)=NC2=O
2. CN(C)CCN(C)CCC(=O)/C=C/c1ccccc1

[3.31, 39.6]

Hey, can you go through the list below and give me TGI for every item?
1. COc1cc(O)c2c3c(ccnc13)-c1ccccc1N2
2. CCOc1cc2ncc(C#N)c(Nc3ccc(F)c(Cl)c3)c2cc1NC(=O)CC1CCSS1 (stereo not given)
3. COc1ccc(/C=C/c2cc(OC)cc(OC)c2)cc1
4. CN(C)C=Nc1ccc2c3c(cccc13)-c1ccccc1-2
5. CC(=O)O[C@@H]1C(C2CCCCC2)C=[N+]([O-])O[C@@H]1OC1CCCC1(c1ccccc1)c1ccccc1 (stereo not given in full)
6. Cn1cc(NC(=O)c2cc(NC(=O)CCCCCCCCC(=O)Nc3cc(C(=O)Nc4cc(C(=O)NCCC(N)N)n(C)c4)n(C)c3)cn2C)cc1C(=O)NCCC(=N)N

1: 10.8; 2: 17.4; 3: 11; 4: 24.5; 5: 14.2; 6: 54.4

Hey, can you go through the list below and give me TGI for every item?
1. C=C1C(=O)O[C@H]2[C@H]1CC/C(COC(=O)NCc1ccc(Cn3c(=O)sn(CCCC)c3=O)cc1)=C\CC[C@@]1(C)O[C@@H]21
2. Oc1c(CNCCCN2CCCC2)cc(Cl)c2cccnc12
3. CN(C)C(=S)NC(=S)Nc1ccc2ccccc2c1
4. C[n+]1c2ccccc2c2/c(=C\C#N)c3ccccc3n21
5. Oc1ccc(-c2nc3ccc(F)cc3s2)cc1
6. c1ccc(-c2ccc(-c3ccc(C4=NCCN4)cc3)o2)cc1
7. C[C@]12OC(=O)[C@]3(O)CC[C@H]4[C@@H](C[C@@H](O)[C@@]5(Cl)CC=CC(=O)[C@]45C)[C@]45OCC6C(=O)O[C@@H]1C[C@@]6(C)[C@H](C4=O)[C@@]32O5 (stereo not given in full)

[3.24, 10.1, 31.6, 17.5, 34, 4.4, 1.97]

----------
Tested on: ACHN renal
testDescription: NCI tumour cell line growth inhibition, 48 h
measurementLabel: TGI (µM)
Numbers only, in µM.

COC(=O)C1=C(C(=O)OC)C2(C)OC1C(=O)C21CC1 (stereo not given) = 41.6

// next item, TGI requested
Please look at this molecule and report its TGI: `CCOC(=O)C(=Cc1ccc(-c2ccccc2)cc1)C(=O)OCC`
3.42

----------
Tested on: HCT-116 colon
testDescription: NCI tumour cell line growth inhibition, 48 h
Classification field: enter T for TGI values not below 5 µM, F for values below it.

Answered cases to consult:
COc1ccc(C2Oc3ccc(O)cc3[C@@H]2C)cc1OC (stereo partly drawn) = T
CSc1ccc(NC(=O)C2CCCCC2C(=O)O)cc1 (stereo not drawn) = T
N#C/C(=C/c1cccc2ccccc12)C(=O)c1ccccc1 = T
CCOc1ccc(/C=C\c2cc(OC)c(OC)c(OC)c2)cc1 = F
COP(=O)(OC)/C(=C\C1=CN(C(c2ccccc2)(c2ccccc2)c2ccccc2)CN1)NC=O = T
CC(C)(O)C1CC[C@]2(C)CC[C@]3(C)[C@H](CC[C@@H]4[C@@]5(C)CC[C@H](O)C(C)(C)[C@@H]5CC[C@]43C)[C@@H]12 (stereo partly drawn) = T
COc1ccc(C(=O)N2N=C(c3ccc(Br)cc3)CC2c2cn(-c3ccccc3)nc2-c2ccccc2)cc1 (stereo not drawn) = T
CC(C)c1ccc(COCc2cc(CN3CCCC3)c(O)c3ncccc23)cc1 = F
COc1ccc2c(c1)CCc1cc(C(N)=O)c3nnnn3c1-2 = T
OCCOCCO/N=C1\C(c2c(O)[nH]c3ccccc23)=Nc2ccccc21 = F

Determine whether measured TGI meets or exceeds 5 µM for `Cc1ccc(Oc2ccc(C(=O)c3cccc(C(=O)c4ccc(Oc5ccc(C)cc5)cc4)n3)cc2)cc1`
T

Determine whether measured TGI meets or exceeds 5 µM for `COc1ccc(-c2cc(-c3ccccc3)nc(N)c2-c2ccc3ccccc3c2)cc1`
F

Determine whether measured TGI meets or exceeds 5 µM for `CC(C)c1ccccc1NC(=O)CCC(=O)NN`
T

Determine whether measured TGI meets or exceeds 5 µM for `CN(c1nc(=[N+](C)C)ss1)C1CCCCC1`
T

Determine whether measured TGI meets or exceeds 5 µM for `COC(=O)c1ccc2[nH]c(O)c(C(=Nc3ccc(N(C)C(=O)CN4CCN(C)CC4)cc3)c3cccc(OC)c3)c2c1`
F

Determine whether measured TGI meets or exceeds 5 µM for `CN(C)C(=S)NC(=S)Nc1ccc2ccccc2c1`
T

Determine whether measured TGI meets or exceeds 5 µM for `OC[C@H]1C[C@@H]2Cc3ccccc3N2N1`
T
